target: UniProtKB P00533
Sequence (P00533 whole entry): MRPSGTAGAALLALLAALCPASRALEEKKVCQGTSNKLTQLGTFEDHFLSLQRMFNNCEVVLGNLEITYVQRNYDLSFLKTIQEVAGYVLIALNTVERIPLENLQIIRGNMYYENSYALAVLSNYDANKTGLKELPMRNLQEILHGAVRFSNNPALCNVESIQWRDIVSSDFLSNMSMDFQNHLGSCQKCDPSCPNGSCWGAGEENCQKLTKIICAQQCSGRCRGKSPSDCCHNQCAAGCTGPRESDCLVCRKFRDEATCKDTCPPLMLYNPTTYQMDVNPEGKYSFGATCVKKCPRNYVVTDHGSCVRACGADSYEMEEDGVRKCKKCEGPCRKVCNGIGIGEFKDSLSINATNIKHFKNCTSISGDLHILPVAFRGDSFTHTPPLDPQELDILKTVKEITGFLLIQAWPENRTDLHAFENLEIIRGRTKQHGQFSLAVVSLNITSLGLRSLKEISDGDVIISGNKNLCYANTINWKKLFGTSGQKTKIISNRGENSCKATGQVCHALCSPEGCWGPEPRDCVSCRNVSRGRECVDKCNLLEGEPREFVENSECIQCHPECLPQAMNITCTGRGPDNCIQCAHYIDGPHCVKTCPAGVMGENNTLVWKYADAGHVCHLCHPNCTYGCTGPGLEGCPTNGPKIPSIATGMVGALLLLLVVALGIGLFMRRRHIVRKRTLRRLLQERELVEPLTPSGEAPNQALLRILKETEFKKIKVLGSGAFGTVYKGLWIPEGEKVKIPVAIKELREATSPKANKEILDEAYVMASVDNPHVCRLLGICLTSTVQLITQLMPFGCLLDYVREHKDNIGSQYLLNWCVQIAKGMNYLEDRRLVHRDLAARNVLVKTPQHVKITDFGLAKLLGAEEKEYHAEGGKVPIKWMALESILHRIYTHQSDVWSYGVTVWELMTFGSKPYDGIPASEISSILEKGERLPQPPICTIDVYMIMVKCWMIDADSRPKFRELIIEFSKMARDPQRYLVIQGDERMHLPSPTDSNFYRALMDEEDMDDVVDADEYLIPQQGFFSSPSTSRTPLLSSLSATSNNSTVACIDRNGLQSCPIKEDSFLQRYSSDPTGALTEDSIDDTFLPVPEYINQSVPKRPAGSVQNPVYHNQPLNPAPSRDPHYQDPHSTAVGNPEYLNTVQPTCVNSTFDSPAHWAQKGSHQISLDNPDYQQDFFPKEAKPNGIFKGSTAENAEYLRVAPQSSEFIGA

compound	IC50 [nM]
O=C(CCCCCCC(=O)Nc1ccccc1)NO [VORINOSTAT]	900

====

target: Histone deacetylase 3 (Homo sapiens, UniProt O15379); test: Inhibition of recombinant human HDAC3 expressed in baculovirus expression system using Ac-Lys-Tyr-Lys (epsilon-acetyl)-AMC as substrate after 24 hrs by fluorescence assay
Sequence (O15379 whole entry): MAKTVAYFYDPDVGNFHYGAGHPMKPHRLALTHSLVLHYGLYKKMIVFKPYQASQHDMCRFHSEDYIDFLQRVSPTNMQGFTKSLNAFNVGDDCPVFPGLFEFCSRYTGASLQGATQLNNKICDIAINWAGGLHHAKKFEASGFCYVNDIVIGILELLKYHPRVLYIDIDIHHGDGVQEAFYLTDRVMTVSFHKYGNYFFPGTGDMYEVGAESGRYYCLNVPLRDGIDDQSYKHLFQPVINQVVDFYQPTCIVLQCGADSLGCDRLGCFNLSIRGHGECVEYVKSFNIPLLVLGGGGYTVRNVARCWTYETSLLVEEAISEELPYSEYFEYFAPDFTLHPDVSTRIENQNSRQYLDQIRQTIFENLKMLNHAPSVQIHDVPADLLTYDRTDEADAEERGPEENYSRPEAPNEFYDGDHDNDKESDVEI
readout: IC50 (µM)

molecule-smiles	readout	experimental-result
COCCOc1cc2ncnc(Nc3ccc(/C=C/C(=O)NO)cc3)c2cc1OCCOC	IC50	0.18

====

target: Protein deacetylase HDAC6 (Homo sapiens, UniProt Q9UBN7); test: Inhibition of recombinant human HDAC6 expressed in baculovirus expression system using Ac-Lys-Tyr-Lys (epsilon-acetyl)-AMC as substrate after 24 hrs by fluorescence assay
Sequence (Q9UBN7 whole entry): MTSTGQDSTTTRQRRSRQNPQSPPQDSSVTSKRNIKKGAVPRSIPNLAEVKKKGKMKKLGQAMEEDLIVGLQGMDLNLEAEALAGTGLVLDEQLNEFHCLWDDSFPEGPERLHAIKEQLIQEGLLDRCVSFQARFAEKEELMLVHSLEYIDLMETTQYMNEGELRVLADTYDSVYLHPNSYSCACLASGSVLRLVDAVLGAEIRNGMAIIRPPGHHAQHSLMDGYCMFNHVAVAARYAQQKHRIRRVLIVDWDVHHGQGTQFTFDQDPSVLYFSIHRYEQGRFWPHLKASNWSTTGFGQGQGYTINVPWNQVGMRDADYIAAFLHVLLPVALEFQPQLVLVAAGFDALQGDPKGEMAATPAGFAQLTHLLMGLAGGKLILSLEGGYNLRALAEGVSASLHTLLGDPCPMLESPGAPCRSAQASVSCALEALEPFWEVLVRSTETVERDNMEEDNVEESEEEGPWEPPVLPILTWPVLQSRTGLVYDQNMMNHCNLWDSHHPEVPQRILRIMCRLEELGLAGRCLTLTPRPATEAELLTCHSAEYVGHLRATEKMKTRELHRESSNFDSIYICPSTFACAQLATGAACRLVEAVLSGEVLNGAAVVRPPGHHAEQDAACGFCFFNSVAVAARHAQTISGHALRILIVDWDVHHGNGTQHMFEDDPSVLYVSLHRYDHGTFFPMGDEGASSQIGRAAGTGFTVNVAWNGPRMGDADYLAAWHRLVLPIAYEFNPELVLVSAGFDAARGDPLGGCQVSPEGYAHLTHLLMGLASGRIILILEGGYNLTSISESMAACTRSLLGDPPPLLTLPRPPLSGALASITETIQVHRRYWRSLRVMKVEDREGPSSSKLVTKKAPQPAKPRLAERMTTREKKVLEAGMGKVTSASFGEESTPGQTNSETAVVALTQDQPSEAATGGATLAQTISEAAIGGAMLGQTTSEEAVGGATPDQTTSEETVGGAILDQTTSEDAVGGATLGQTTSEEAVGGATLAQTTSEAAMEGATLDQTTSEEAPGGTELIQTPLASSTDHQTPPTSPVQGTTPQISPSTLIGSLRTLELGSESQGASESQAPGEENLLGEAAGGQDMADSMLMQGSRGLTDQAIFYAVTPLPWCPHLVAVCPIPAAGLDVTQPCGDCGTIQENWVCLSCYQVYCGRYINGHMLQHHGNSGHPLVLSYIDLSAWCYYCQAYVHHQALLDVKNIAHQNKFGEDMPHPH

molecule-smiles	assay-target	IC50 / nM
COCCOc1cc2ncnc(Nc3ccc(/C=C/C(=O)NO)cc3)c2cc1OCCOC	Protein deacetylase HDAC6 (Homo sapiens, UniProt Q9UBN7)	560
